- measured on: Estrogen receptor (Homo sapiens)
- method notes: qHTS assay to identify small molecule agonists of the estrogen receptor alpha (ER-alpha) signaling pathway (AID 743075);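 also: HEK293 GripTite cells with ER-alpha and UAS-driven beta-lactamase reporter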
- condition label: HEK293 ER-alpha-UAS-bla, beta-lactamase FRET ratio, 18 h; series mostly up to 70.1 µM
Inconclusive results are not listed. Activity calls are given as the source filed them. Calls follow the shape of the full dose curve.
property name: outcome

molecule smiles	property name	value reported
CC[C@H](C)[C@@H](C(=O)O)n1sc2ccccc2c1=O	outcome	inactive
O=C(O)[C@@H]1[C@H]2C[C@H]3c4[nH]c5ccccc5c4CCN3C[C@@H]2CC[C@@H]1O	outcome	inactive
C[C@H](CCC(=O)O)[C@H]1CC[C@H]2[C@@H]3[C@H](O)C[C@@H]4C[C@H](O)CC[C@]4(C)[C@H]3CC[C@]12C	outcome	inactive
CCOc1ccc2[nH]cc(C(=O)NCc3ccccc3)c(=O)c2n1	outcome	inactive
